Parameter Soluble 60-mer huBAFF (4 pM) Neutralization IC50: see the listing below.
Target: Recombinant soluble 60-mer human BAFF (His-HuBAFF 134-285) (human, UniProt Q9Y275 134-285)
Test: cell-based or functional assay
Write the answer as a number in pM, unit excluded.

[[record]]
binder = "444G1A10 (antibody, V domains shown) VH: RVQLKESGPGLVAPSQSLFITCTVSGFSLTTYEINWVRQSPGKGLEWLGVIWTGGTTKYNSAFISRLSITKDNSKSLVFLKMSSLQTDDTAIYYCVREGRRYYAMDYWGQGTSVTVSS VL: NIVLTQSPASLAVSLGQRATISCRASESVDSYGNSFMFWFQQKPGQAPKLLIFLTSNLESGVPARFSGSGSRTDFTLTIDRVEADDAATYYCQQSNEDPRTFGGGTKLEIK"
result = 12

[[record]]
binder = "317H2A6 (antibody, V domains shown) VH: QVTLKESGPGILQPSQTLSLTCSFSGFSLRTFGMGVGWIRQPSGKGLEWLAHIWWNGDKYYDPALKSRLTISKDTSENRVFLNIANVDTTDTAPYYCVRIGPSITTVAEGFAYWGQGTLVTVSA VL: DIVMTQSQKFLSTTIGDRVSITCKASQNVGSAVVWYQQKPGQPPKLLITSASNRYSGVPDRFTGSGSGTDFTLTVSNVQSVDLADYFCQQYSNYPLTFGAGTKLELK"
result = 4

[[record]]
binder = "348A6C1 (antibody, V domains shown) VH: QVTLRESGPGILQPSQTLSLTCSFSGFSLRTFGMGVGWIRQPSGKGLEWLAHIWWNDEKYYNPALKSRLTVSKDSSENQVFLKIANVDTTDTAPYYCARLGPSITTVAEGFPYWGQGTLVTVSA VL: DIVMTQSQKFMSTTVGDRVSITCKASQNVGAAVAWYQQKPGQPPKLLIRSASNRYIGVPDRFTGSGSGTDFTLTVSDVQSVDLADYFCQQYSNYPLTFGAGTKLELTR"
result = 9


Entry 450A2A7 (antibody, V domains shown) VH: QVQLQQSGPELVKPGASVKLSCKASGYTFTDYSIHWVKQSPGQGLEWIGWIYPGSDNTKYNDKFKGKASMTADKSSRTVYMHLSSLTSEESAVYFCARDYRRYYAMDYWGQGTSVTVSS VL: IVLTQSSASLAVSLGQRATISCRASESVDRYGNSLMHWYQQKPGQPPKLLIYIASNLESGVPARFSGSGSRTDFTLTIDPVEADDAATYYCQQNNEDPRTFGGGTKLEIK ; Soluble 60-mer huBAFF (4 pM) Neutralization IC50 = 24

Entry 381A6A9 (antibody, V domains shown) VH: QVQLQQSGPELVKPGGSVKISCKAAGYSLTSYYIHWVKQRPGQGLEWIGLIFPGSGNSKYIEKFKGKATLTADTSSNTAYMQLSSLTSEDSAVYYCTRGDFGNYLAYWYFDVWGTGTTVTVSS VL: DIKMTQSPSSIYASLGERVTITCKASQDINSYLSWFQQKPGKSPKTLMYRANRLVDGVPSRFSGSGSGQDYSLTISSLEYEDMGNYYCLQYDEFPYTFGGGAKLEIK ; Soluble 60-mer huBAFF (4 pM) Neutralization IC50 = 17
